Just for reference, ChEMBL document CHEMBL1201862 is where these values come from.

# Tested on: UO-31
# assay_protocol: NCI tumour cell line growth inhibition, 48 h
The source made the active and inactive calls. No stated cut-off is given here; in the data, active = GI50 up to about 1.1 µM and inactive = higher.
value_type: GI50

Please review the entries below; each comes with its answer.
> print(dat)
                                   compound  value.type      reported.result
1  COC(=O)[C@]12CC[C@H]3CN(C(=O)OCc4ccccc4)[C@H]([C@H]31)[C@H](c1ccco1)N2        GI50  > 100 µM (inactive)
2    NC1CC(=O)c2cscc21 (stereo unspecified)        GI50   10.3 µM (inactive)
3  CCCCCCCCCCCCCCCC(=O)N(CCCCCCCCCCC(=O)O)CC(O)C(O)C(OC1OC(CO)C(O)C(O)C1O)C(O)CO (stereo unspecified)        GI50   35.1 µM (inactive)
4  O=C(O)c1ccccc1-c1ccccc1C(=O)Nc1ccc2c(c1)Cc1cc(F)ccc1-2        GI50   27.8 µM (inactive)
5  Nc1ccc(C(=O)Nn2c(-c3ccccc3)nc3ccccc3c2=O)cc1        GI50  > 100 µM (inactive)

Dear colleague, could you please provide GI50 for the compounds listed below?
1. O=C1/C(=C/c2ccccc2)CN(C(=O)C(Cl)(Cl)Cl)C/C1=C\c1ccccc1
2. COc1ccc2nc3cccc(C(=O)NCCN(C)C)c3nc2c1

Out:
1: 2.59 µM (inactive); 2: 2.45 µM (inactive)
